B1: library; numbered along this chain (parent)
chain: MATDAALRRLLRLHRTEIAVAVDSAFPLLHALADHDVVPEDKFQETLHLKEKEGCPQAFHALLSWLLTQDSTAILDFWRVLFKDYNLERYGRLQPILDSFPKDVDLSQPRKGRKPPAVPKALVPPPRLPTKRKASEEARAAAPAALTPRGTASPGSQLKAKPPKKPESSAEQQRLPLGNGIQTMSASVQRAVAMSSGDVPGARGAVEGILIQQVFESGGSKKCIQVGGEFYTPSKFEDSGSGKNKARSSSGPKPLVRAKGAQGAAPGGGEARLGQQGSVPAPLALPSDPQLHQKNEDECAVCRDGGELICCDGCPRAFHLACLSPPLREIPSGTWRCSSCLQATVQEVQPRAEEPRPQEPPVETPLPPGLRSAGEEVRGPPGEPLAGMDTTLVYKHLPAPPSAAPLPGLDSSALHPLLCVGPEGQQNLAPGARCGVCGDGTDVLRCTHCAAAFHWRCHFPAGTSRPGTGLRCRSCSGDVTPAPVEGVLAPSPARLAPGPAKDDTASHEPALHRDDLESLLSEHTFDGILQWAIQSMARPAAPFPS

Variants of: B1
test_details: AIRE transcriptional activation functional score (insulin promoter-GFP; nonsense median 0, synonymous median 1) (normalised score); higher = higher AIRE activity (more reporter activation)
condition_notes: with insulin promoter-GFP reporter in HEK293
Classify on AIRE transcriptional activation functional score using low (below 0.5), middle (0.5 to below 0.9), high (0.9 or more)

INSERT INTO results (variant_descriptor, class_assignment) VALUES
  ('F77I', 'low'),
  ('E207I', 'low'),
  ('G197E', 'low'),
  ('P282M', 'high'),
  ('V38R', 'high'),
  ('L175V', 'middle'),
  ('P400V', 'middle'),
  ('L175Q', 'high');

Problem: Which class holds G277N ?
Result: high

Problem: Which class holds C55S ?
Result: low

Problem: Which class holds F43R ?
Result: low
